system: EKVX NSCLC; assay: NCI tumour cell line growth inhibition, 48 h
Where a SMILES comes first, the peptide text is derived from it. The star is where a group is joined. Boc = CC(C)(C)OC(=O)*; tBu = CC(C)(C)*
Quantity Kind: TGI

Input: Report TGI for "O=C(/C=C/c1ccc(Cl)cc1)c1ccc(Cl)s1"
Output: > 100 µM

Input: Report TGI for CC1(C)OC2OC(COC(=O)C(c3ccccc3)c3ccccc3)C3OC(C)(C)OC3C2O1 (configuration not stated)
Output: > 100 µM

Input: Report TGI for "CCC1=C(c2ccc(OC)cc2)CC[C@]2(CCNC2=O)[C@@H]1C"
Output: > 86.7 µM

Input: Report TGI for CC1=C2CC(C)(C)CC(=O)C2(C)CCC1=O (configuration not stated)
Output: > 100 µM

Input: Report TGI for "N#C[C@H](C(=O)c1ccccc1F)c1nc2ccccc2[nH]1"
Output: > 100 µM

Input: Report TGI for O=c1[nH]c(=O)n(C2CC(O)C(O)C(CO)O2)cc1F (configuration not stated)
Output: > 100 µM

Input: Report TGI for "Cc1cc(OC(=O)Nc2ccc(Cl)cc2)ccc1C(=S)Nc1ccccc1"
Output: > 100 µM

Input: Report TGI for "Cc1cc(C)c(S(=O)(=O)N(CCCN)OCCCN)c(C)c1"
Output: > 100 µM

Input: Report TGI for CC(OC(C)(C)C)C(NC(=O)C(N)CCCCNC(=O)OC(C)(C)C)C(=O)NC(Cc1ccccc1)C(=O)O (configuration not stated) (H-Lys(Boc)-Thr(tBu)-Phe-OH; configuration not given here)
Output: > 100 µM

Input: Report TGI for N#Cc1cccc(C2C3=C(COC3=O)N(CCO)c3cc4c(cc32)CCC4)c1 (configuration not stated)
Output: > 50 µM

Input: Report TGI for "Cn1c(=O)c(C(=O)NC23CC4CC(CC(C4)C2)C3)c(O)c2ccccc21"
Output: > 100 µM

Input: Report TGI for "Cc1cc(-c2ccco2)cc(C)c1/C=C/c1cncc(-c2nn[nH]n2)c1"
Output: > 25 µM

* * *

tested on: SK-OV-3 ovarian; experiment: NCI tumour cell line growth inhibition, 48 h; in the data active = GI50 below about 0.43 µM; inactive = the rest
Outcomes you can answer with include only these: active, inactive

Input: Recorded test outcome, item "CCOC(=O)c1cc2cc(OCc3ccccc3)ccc2[nH]1"
Output: inactive

Input: Recorded test outcome, item "Cc1n(Cc2ccc3ccccc3n2)cc[n+]1Cc1ccc2ccccc2c1"
Output: inactive

Input: Recorded test outcome, item "COc1cc2c3c(n(CCCN4CCSCC4)c(=O)c2cc1OC)-c1cc2c(cc1C3=O)OCO2"
Output: inactive

Input: Recorded test outcome, item "CN(c1ccc(NC(=O)NCCN2CCOCC2)cc1)c1ccnc(Nc2ccc(CS(C)(=O)=O)cc2)n1"
Output: inactive

Input: Recorded test outcome, item "Cc1ccc(O)cc1Nc1ccnc2cc(-c3ccccn3)ccc12"
Output: inactive

Input: Recorded test outcome, item "C=C(C)[C@@H]1CC[C@]2(C(=O)n3ccnc3)CC[C@]3(C)[C@H](CC[C@@H]4[C@@]5(C)CCCNC(C)(C)[C@@H]5CC[C@]43C)[C@@H]12"
Output: inactive

Input: Recorded test outcome, item "CCN(CC)CCS(=O)(=O)CCNc1ccnc2cc(Cl)ccc12"
Output: inactive

Input: Recorded test outcome, item "CC1(C)CC(O)CC(C)(C)N1.CC1(C)CC(O)CC(C)(C)N1.CC1(C)CC(O)CC(C)(C)N1.CC1(C)CC(O)CC(C)(C)N1.Cl.[Ti]"
Output: inactive

Input: Recorded test outcome, item "O=C(Nc1ccc(Br)cc1)Nc1cccc(Br)c1"
Output: inactive

Input: Recorded test outcome, item CC(=O)Nc1cc(/C=C\C(=O)N2CC(CCl)c3c2cc(N)c2ccccc32)n(C)n1 (stereo unspecified)
Output: active

Input: Recorded test outcome, item "CCc1ccc(C2=NN(c3ccc(S(C)(=O)=O)cc3)C(=O)CC2)cc1"
Output: inactive

Input: Recorded test outcome, item "O=C1c2ccccc2-c2c1c1ccc([N+](=O)[O-])cc1c(=O)n2CCCCl"
Output: inactive

Input: Recorded test outcome, item "Cc1nn2c(-c3nc4cc(Cl)c(Cl)cc4[nH]3)c(-c3ccc(F)cc3)nc2s1"
Output: inactive

Input: Recorded test outcome, item CN(C)c1ccc2c(c1)OC(N)=C(C#N)C2c1ccc2c(c1)CCCN2C (stereo unspecified)
Output: inactive

Input: Recorded test outcome, item "Cc1ccc(-c2nc(C(Cl)Cl)nc3cc(C)nn23)cc1"
Output: inactive

Input: Recorded test outcome, item "Nc1c(C(=O)Nc2ccccn2)sc2nc3c(cc12)CCCCCC3"
Output: inactive
